# measured-on: ALK (Homo sapiens, UniProt Q9UM73)
# Construct: host or cells: baculovirus expression system
# Sequence (Q9UM73 19-1620): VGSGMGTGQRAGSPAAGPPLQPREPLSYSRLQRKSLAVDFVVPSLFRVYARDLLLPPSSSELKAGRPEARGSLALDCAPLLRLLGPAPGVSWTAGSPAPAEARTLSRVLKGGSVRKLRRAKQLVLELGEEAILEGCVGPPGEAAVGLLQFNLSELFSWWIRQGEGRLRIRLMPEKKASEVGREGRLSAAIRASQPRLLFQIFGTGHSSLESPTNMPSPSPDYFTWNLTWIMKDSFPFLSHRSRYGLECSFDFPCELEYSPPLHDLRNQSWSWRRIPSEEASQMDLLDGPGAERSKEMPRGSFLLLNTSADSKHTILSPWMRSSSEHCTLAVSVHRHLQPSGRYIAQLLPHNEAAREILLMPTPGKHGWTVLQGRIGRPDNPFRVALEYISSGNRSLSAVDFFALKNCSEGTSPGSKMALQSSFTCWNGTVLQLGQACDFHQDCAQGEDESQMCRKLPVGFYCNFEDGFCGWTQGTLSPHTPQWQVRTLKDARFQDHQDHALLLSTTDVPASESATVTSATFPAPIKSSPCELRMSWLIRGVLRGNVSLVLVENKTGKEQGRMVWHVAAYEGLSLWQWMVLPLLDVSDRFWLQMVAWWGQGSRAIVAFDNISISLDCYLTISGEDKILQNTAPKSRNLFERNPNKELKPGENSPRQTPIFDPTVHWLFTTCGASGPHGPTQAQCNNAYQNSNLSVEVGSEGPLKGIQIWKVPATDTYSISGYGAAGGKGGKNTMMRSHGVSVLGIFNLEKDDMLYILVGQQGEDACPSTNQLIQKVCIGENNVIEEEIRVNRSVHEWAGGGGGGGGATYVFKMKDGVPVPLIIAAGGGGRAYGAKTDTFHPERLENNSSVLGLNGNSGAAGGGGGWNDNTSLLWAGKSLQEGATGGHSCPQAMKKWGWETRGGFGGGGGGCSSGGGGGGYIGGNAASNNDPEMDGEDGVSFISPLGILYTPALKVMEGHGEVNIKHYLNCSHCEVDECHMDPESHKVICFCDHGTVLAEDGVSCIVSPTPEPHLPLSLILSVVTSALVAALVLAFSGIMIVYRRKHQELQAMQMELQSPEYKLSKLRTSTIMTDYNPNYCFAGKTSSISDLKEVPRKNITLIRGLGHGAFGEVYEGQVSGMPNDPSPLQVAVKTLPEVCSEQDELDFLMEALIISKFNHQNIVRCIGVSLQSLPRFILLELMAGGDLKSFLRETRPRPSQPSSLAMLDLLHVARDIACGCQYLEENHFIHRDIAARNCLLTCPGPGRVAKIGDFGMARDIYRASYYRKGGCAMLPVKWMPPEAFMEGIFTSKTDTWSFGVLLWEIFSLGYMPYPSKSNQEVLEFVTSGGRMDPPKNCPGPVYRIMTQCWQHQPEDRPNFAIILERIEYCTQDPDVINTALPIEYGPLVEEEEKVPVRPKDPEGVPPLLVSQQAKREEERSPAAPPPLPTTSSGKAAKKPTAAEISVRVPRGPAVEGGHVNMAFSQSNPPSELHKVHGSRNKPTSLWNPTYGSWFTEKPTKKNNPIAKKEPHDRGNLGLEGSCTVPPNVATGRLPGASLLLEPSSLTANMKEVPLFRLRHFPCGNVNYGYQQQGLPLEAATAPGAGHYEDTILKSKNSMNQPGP
# procedure-text: ALK Kinase Assay (ELISA/TRF, PLC-γ substrate)
# Format: biochemical
# particulars: ALK kinase inhibition, 1 μM ATP; read-out: ALK Potency
# Protocol: Briefly, each 96-well plate was coated with […] of 10 μg/mL substrate (phospholipase C-γ) in Tris-buffered saline (TBS). […] The reaction was initiated by adding enzyme (30 ng/ml ALK) and was allowed to proceed at 37° C. for 15 minutes. Detection of the phosphorylated product was performed by adding 100 μl/well of Eu—N1 labeled PT66 antibody (Perkin Elmer # AD0041). Data analysis was performed using ActivityBase (IDBS, Guilford, UK). […]
pIC50: −log10 of the molar value.
metric: pIC50

Request: Give recorded pIC50 with ALK (Homo sapiens, UniProt Q9UM73) for the following compound: COc1ccccc1-c1ccc2cnc(Nc3ccc4c(c3OC)CN(C3COC3)C4)nn12
Result: 6.00 to 7.00

Request: Field entry: COc1cc(C2CCN(CC(N)=O)CC2)ccc1Nc1ncc2cc(C)c(-c3ccccc3N(C)S(C)(=O)=O)n2n1
Result: 5.00 to 6.00

Request: Field entry: COc1ccc(-c2ccc3cnc(Nc4ccc(C5CCN(CC(N)=O)CC5)cc4)nn23)c(OC)n1
Result: > 7.00

Request: Field entry: COc1ccc(-c2ccc3cnc(Nc4ccc(C5CCN(CCO)CC5)cc4)nn23)cn1
Result: 6.00 to 7.00

Request: Field entry: COc1cc([C@]2(C#N)CC[C@H](N3CCOCC3)CC2)ccc1Nc1ncc2ccc(-c3ccccc3N(C)S(C)(=O)=O)n2n1
Result: > 7.00

Request: Field entry: COc1ccccc1-c1ccc2cnc(Nc3ccc4c(c3)N(C)CCO4)nn12
Result: 6.00 to 7.00

Request: Field entry: Cc1cc(Nc2ncc3ccc(-c4ccc(S(C)(=O)=O)cc4)n3n2)ccc1C1CCN(C)CC1
Result: > 7.00

Request: Field entry: NC(=O)CN1CCC(c2ccc(Nc3ncc4ccc(-c5cccc6cccnc56)n4n3)cc2)CC1
Result: 5.00 to 6.00

Request: Field entry: COc1ccccc1-c1ccc2cnc(Nc3ccc(OCCN4CCOCC4)cc3)nn12
Result: > 7.00

Request: Field entry: C#CCNC(=O)c1cccc(-c2ccc3cnc(Nc4ccc(N5CCN(C)CC5)cc4)nn23)c1
Result: 6.00 to 7.00

Request: Field entry: CN(c1ccccc1-c1ccc2cnc(Nc3ccc4cnn(C)c4c3)nn12)S(C)(=O)=O
Result: 6.00 to 7.00

Request: Field entry: CN1CCN(C)C(c2cccc(Nc3ncc4ccc(-c5cccc(S(=O)(=O)N6CCOCC6)c5)n4n3)c2)C1=O (stereo not shown)
Result: < 5.00

Request: Field entry: O=S(=O)(CC1CC1)c1cccc(-c2ccc3cnc(Nc4ccc5nc[nH]c5c4)nn23)c1
Result: 5.00 to 6.00

Request: Field entry: COc1cc(C2CCN(C)CC2OC)ccc1Nc1ncc2ccc(-c3ccccc3OC)n2n1 (racemic)
Result: > 7.00

Request: Field entry: COc1cc(C(=O)N2CCN(C)CC2)ccc1Nc1ncc2ccc(-c3ccccc3OC)n2n1
Result: 6.00 to 7.00

Request: Field entry: CN1CCN(c2ccc(Nc3ncc4ccc(-c5cccc(NS(C)(=O)=O)c5)n4n3)nc2)CC1
Result: 6.00 to 7.00

Request: Field entry: COc1cc(N2CCC(N3CCOCC3)CC2)c(C)cc1Nc1ncc2ccc(-c3ccccc3OC)n2n1
Result: > 7.00

Request: Field entry: CN1CCN(c2ccc(Nc3ncc4ccc(-c5cccc6c5OCCO6)n4n3)cc2)CC1
Result: > 7.00

Request: Field entry: COc1cc(N2CCC(N3CCOCC3)CC2)ccc1Nc1ncc2ccc(-c3ccccc3S(C)(=O)=O)n2n1
Result: 5.00 to 6.00

Request: Field entry: COc1ccc(-c2ccc3cnc(Nc4ccc5c(c4)CCN(CC(N)=O)C5)nn23)cn1
Result: < 5.00

Request: Field entry: COc1cc(C2CCN(C[C@H](Oc3ncc4ccc(-c5ccccc5OC)n4n3)C(F)(F)F)CC2)ccc1N
Result: < 5.00

Request: Field entry: COc1cc(N2CCC(N3CC[C@@H](O)C3)CC2)ccc1Nc1ncc2ccc(-c3ccccc3N(C)S(C)(=O)=O)n2n1
Result: > 7.00
